Value source: ChEMBL document CHEMBL2176954

Give pIC50 for every item shown.
- testSystem: Glutamate receptor ionotropic, NMDA 2A (Rattus norvegicus, UniProt P35439+Q00959)
- Sequence (Q00959 whole entry, one chain of several): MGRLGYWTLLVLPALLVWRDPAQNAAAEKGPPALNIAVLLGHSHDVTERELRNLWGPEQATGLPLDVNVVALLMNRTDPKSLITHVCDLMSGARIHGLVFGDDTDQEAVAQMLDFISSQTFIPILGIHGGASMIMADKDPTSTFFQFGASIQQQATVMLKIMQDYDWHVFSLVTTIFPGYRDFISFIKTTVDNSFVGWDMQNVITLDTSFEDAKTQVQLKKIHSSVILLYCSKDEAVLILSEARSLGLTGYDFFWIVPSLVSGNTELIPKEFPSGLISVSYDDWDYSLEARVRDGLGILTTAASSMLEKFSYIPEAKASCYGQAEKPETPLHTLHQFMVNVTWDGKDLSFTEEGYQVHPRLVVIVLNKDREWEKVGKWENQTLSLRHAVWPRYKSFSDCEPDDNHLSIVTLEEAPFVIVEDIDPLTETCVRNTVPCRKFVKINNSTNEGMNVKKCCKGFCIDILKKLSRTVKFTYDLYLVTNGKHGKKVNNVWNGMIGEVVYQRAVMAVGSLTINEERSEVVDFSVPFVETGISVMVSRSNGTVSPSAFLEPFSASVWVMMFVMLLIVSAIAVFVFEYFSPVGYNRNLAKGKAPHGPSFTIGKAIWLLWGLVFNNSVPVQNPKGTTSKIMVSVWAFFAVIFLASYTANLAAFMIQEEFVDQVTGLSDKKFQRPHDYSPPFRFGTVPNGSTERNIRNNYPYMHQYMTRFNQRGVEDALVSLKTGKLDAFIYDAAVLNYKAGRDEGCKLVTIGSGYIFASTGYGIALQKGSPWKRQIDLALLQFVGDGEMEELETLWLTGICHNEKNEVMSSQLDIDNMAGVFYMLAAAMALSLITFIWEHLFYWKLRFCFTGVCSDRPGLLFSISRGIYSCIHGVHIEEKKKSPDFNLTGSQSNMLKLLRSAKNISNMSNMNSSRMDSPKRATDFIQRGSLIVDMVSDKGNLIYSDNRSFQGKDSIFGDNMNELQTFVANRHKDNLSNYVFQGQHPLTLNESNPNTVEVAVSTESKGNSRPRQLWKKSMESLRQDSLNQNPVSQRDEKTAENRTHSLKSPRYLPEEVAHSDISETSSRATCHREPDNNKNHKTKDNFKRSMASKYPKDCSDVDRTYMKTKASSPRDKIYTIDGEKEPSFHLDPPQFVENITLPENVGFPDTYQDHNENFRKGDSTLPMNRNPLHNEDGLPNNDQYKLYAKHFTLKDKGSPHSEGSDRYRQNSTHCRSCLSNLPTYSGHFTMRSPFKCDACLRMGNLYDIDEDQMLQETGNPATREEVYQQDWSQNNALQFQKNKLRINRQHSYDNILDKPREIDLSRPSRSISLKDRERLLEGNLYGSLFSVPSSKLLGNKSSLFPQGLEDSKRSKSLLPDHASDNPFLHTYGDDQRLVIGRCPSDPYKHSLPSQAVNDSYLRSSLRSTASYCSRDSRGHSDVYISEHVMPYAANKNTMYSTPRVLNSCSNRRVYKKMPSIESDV
- testProtocol: Antagonist activity at rat glutamate N1/2A receptor expressed in Xenopus oocytes at membrane potential -60 mV by two-electrode voltage-clamp electrophysiology assay
Convention used: pIC50 is expressed as -log10 of the molar concentration.

State the recorded pIC50 for this entry: `NCCCNCCCCNCCC(=O)NCCCCCNC(=O)[C@H](CC(N)=O)NC(=O)Cc1c[nH]c2cccc(O)c12`
5.86

State the recorded pIC50 for this entry: `N=C(N)NCCC[C@H](N)C(=O)NCCCCNCCC(=O)NCCCCCNC(=O)[C@H](CC(N)=O)NC(=O)Cc1ccc(O)cc1O`
5.27
